assay: yeast display, Sf9 membrane polyspecificity reagent, FACS + sequencing; frameworks hold sequencing errors
RECORDED METRIC: polyreactivity (PSR sort gate)

Past entries and their recorded results:
RESIDUE SEQUENCE	VAL
QVQLVESGGGLVQAGGSLRLSCAASGIIFYYYAMGWYRPAPGKERELVAAITSSGVRTYYADSVKGRFTLSRDTAKNTVYLQMNSLKPEDTAVYYCAASVSWPRVSQRARYGYYYWGQGTQVTVSS	high polyreactivity
QVQLVESGGGLVQAGGSLRLSCAASGFIFGRYAMGWYRQAPGKERELVAAISKTGGRTYYADSVKGRFTISRDNAKNTVYLQMNSLKPEDTAVYYCAAVYKRGMDYWGQGTEVTVSS	high polyreactivity
QVQLVESGGGLVQAGGSLRLSCAASGRTFGQYAMGLYRQAPGKERELVAAITTRGGSTYYADSVKGRFTISRDNAKNTVYLQMNSLKPEDTAVYYCNADYPVKRRRGRDYWGQGTQVTVSS	high polyreactivity
QVQLVESGGGLVQAGGSLRLSCAASGSIFSGYAMGWYRQAPGKERELVAALTRSGGRTYYADSVKGRFTISRDNAKNTVYLQMNSLKPEDTSVYYCATLPRYYGYWGQGTQVTVSS	high polyreactivity
QVQLVESGGGLVQAGGSLRLSCAASGRIFTTNVMGWYRQAPGKERELVAAISWSGGNTYYADSVKGRFTISRDNAKNTVYLQMNSLKPEDTAVYYCNAVGTIREGDSWGQGTQVTVSS	low polyreactivity
QVQLVESGGGLVQAGGSLRLSCAASGITFPSYTMGWYRQAPGKERELVATIRNGGSTYYADSVKGRFTISRDNAKNTVYLQMNSLKPEDPAVYYCAAVPLWDYKFFYYLLYDYWGQGTQVTVSS	low polyreactivity
QVQLVESGGGLVQAGGSLRLSCAASGSTFWPNAMGWYRQAPGKERELVAGITTSSGSTFYAHSVKGRFTISRDNAKNTVYLQMNSLKPEDTAVYDCNARVRRRRYKYDYWGQGTQVTVSS	high polyreactivity
QVQLVESGGGLVQAGGSLRLSCAASGRIFYANAMGWYRQAPGKERELVAAISSGGSTYYADSVKGRFTISRDNAKNTVYLKMYSLKPEDTAVYYCAASTVGQTFSYYVDTYDYWGQGTQVTVSS	low polyreactivity
QVQLVESGGGLVQAGGSLRLSCAASGRIFAYYAMGWYRQAPGKERELVAAINRSGVRTYYADSVKGRFTISRDNAKNTVYLQMNSLKPEDTAVYYCAAPGQHSWGQGTQVTVSS	high polyreactivity
QVQLVESGVGLVQAGGSLRLSCAASGRIFGAYAIGWYRQAPRKERELVAAISGSGGRTYYADSVKGRFTISRDSEKNTVYLQMNRLKPEDTAVYYCNKGYVYGHEYWGQGTQVTVSS	high polyreactivity

For the next question, use this sequence.
Incoming: Looking for the measured polyreactivity (PSR sort gate) of `QVQLVESGGGLVQAGGSLRLSCAASGRIFRRNAMGWYRQAPGKERELVASITRGGRTSYADSVKGRFTISRDNAKNTVYLQMNSLKPEDTAVYYCNARSYQSARFRGGYWGQGTQVTVSS` , can you help?
Outgoing: high polyreactivity

Where do these numbers come from? They come from the nanobody polyreactivity screen of Harvey et al. (2022).
